MEASURED_TARGET: human CD33 T42N (human, UniProt P20138 18-364)
Sequence (P20138 18-364 T42N limits assumed): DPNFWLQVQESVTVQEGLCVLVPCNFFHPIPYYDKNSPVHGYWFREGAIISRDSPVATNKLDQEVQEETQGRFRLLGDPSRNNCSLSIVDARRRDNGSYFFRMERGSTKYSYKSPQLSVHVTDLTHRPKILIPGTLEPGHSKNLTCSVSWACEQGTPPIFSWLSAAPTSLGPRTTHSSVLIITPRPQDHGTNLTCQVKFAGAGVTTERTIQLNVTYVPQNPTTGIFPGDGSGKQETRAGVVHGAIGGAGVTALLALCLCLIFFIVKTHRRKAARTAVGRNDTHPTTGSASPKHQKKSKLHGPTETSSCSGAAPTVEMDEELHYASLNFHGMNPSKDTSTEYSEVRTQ
TEST_SUMMARY: flow cytometry, mutant on cells, IgG

>  <BINDER>
Refmab #3 (antibody, human IgG1, V domains shown, Tested in IgG format; human IgG1 Fc silent (PG-LALA)) VH: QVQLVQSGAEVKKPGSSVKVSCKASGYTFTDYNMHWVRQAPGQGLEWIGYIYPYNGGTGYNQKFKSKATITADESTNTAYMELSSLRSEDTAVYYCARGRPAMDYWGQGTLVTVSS VL: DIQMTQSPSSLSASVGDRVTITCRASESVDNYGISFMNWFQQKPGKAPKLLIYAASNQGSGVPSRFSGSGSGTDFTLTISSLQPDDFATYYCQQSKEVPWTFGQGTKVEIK

>  <MEASUREMENT_UNITS>
% WT binding

>  <Mean % WT Binding>
95.5

$$$$
>  <BINDER>
Refmab #2 (antibody, human IgG1, V domains shown, Tested in IgG format; human IgG1 Fc silent (PG-LALA)) VH: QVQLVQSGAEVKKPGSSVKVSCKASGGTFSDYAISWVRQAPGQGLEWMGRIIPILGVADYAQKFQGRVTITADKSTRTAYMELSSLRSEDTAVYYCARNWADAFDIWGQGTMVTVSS VL: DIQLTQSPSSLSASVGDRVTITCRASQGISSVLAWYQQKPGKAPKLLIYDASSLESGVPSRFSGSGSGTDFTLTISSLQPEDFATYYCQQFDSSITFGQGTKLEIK

>  <MEASUREMENT_UNITS>
% WT binding

>  <Mean % WT Binding>
98.2

$$$$
>  <BINDER>
Refmab #4 (antibody, human IgG1, V domains shown, Tested in IgG format; human IgG1 Fc silent (PG-LALA)) VH: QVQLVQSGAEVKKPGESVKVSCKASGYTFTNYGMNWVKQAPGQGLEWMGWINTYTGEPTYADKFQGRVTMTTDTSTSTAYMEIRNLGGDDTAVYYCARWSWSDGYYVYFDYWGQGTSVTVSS VL: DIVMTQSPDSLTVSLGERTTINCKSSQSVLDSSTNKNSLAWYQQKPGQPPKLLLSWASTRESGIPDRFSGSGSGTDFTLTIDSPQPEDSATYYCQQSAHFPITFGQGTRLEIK

>  <MEASUREMENT_UNITS>
% WT binding

>  <Mean % WT Binding>
101

$$$$
>  <BINDER>
Refmab #1 (antibody, human IgG1, V domains shown, Tested in IgG format; human IgG1 (Absolute Antibody hP67.6, Cat. No. Ab00283-10.0); also called hP67.6) VH: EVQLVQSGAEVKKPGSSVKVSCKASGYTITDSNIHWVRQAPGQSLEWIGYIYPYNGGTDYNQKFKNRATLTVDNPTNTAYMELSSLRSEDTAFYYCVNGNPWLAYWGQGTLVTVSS VL: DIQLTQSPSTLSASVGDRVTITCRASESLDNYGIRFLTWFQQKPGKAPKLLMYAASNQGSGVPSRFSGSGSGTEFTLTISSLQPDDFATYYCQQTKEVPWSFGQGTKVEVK

>  <MEASUREMENT_UNITS>
% WT binding

>  <Mean % WT Binding>
99.4

$$$$
